Cited source: PubChem BioAssay

# assay_procedure: inhibitors of TNFa-induced NFkB p65 translocation, primary screen, imaging, HUVEC, MLSMR starter and 10KST1 sets (AID 438);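 also: compound added about 3h40 before a 20 min TNFalpha stimulation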
# measurement_parameters: HUVEC TNFa-induced p65 nuclear translocation; measured here: nuclei count (cytotoxicity indicator), at 2.08 µM
Reported cell count values are given for each entry in this list.
No unit in the answer, please; the number alone is enough.

Looking up O=S(=O)(N[C@@H]1C[C@H]2CC[C@@H]1C2)c1cccs1 , I found its cell count recorded as 433

Looking up CCN(CC)CCn1c2ccccc2c2nc(C)sc21 , I found its cell count recorded as 613

Looking up CCCc1nnc(NC(=O)NCCN2C(=O)C3C4C=CC(C4)C3C2=O)s1 (stereo unspecified) , I found its cell count recorded as 700
